Each recorded value in this set is attributed to PubChem BioAssay (EPA / NIEHS).

biological target: Nuclear receptor subfamily 1 group I member 2 (Homo sapiens) (UniProt O75469); assay: NVS_NR_hPXR: NovaScreen (NVS) Nuclear Receptor Binding Assay for human Pregnane X Receptor (PXR) (AID 2283365);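 note: a drop in FRET signal versus DMSO baseline means the compound binds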
Sequence (O75469 whole entry, looked up): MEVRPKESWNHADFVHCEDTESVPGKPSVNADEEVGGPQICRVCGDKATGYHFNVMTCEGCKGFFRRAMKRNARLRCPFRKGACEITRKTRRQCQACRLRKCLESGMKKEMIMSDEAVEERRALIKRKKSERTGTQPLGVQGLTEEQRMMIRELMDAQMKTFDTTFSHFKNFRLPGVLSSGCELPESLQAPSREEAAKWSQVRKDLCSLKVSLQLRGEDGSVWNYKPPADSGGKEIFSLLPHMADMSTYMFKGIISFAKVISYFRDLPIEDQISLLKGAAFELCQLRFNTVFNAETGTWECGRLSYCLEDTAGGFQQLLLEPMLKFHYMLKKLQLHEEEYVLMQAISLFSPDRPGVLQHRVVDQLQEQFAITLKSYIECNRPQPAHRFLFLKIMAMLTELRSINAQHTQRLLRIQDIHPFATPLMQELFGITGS
Records with an inconclusive call do not appear. Active and inactive are the calls of the source. Rule for the calls: active = hit-call score of the fitted dose curve at least 0.9, where 1 is the maximum; inconclusive = response in the unintended direction; inactive = score below 0.9.
Bench note: report the call from active, inactive

Data request: Call for entry CCCCCCCCCCCCCCCCOS(=O)(=O)O :
Data returned: active

Data request: Call for entry OCCOCCOCCO :
Data returned: active

Data request: Call for entry Cc1nc(-c2ccccn2)ncc1C(=O)Nn1cc(C)c2cc(F)ccc21 :
Data returned: inactive

Data request: Call for entry C[C@]12C=CC(=O)C=C1CC[C@H]1[C@@H]3C[C@@H](O)[C@](O)(C(=O)CO)[C@@]3(C)C[C@H](O)[C@@]12F :
Data returned: inactive

Data request: Call for entry CCN(CC)C(=S)SSC(=S)N(CC)CC :
Data returned: active
